Tested on: OVCAR3 cells
ASSAY EXPLANATION: MTT proliferation assay, OVCAR3
Type: cell-based
RUN CONDITIONS: 5 days compound exposure, 1:3 serial dilution starting at 10 μM
*1 amine or outer side, *2 acyl side, *3 side chain or, on linkers, in order; H or OH if unused. Where a SMILES comes first, the peptide text is derived from it. Bridges are numbered along the chain shown (N, C = ends). [ ]: non-standard residue; d: D form. The star is where a group is joined. X55 = CN([C@@H](Cc1cc(Cl)ccc1-c1cnn(CCN2CCOCC2)c1)C(=O)[*:2])[*:1]; X209 = CN([C@@H](Cc1cc(Cl)ccc1-c1cnc2nn(C)cc2c1)C(=O)[*:2])[*:1]; NMehhhLys(Me) = CN([C@@H](CCCCCCCN(C)[*:3])C(=O)[*:2])[*:1]; cBuCO(3,3-F2-1-CF3) = O=C(C1(C(F)(F)F)CC(F)(F)C1)*; Pro(trans-4-F) = O=C(O)[C@@H]1C[C@@H](F)CN1; Gly(cPr) = N[C@H](C(=O)O)C1CC1
Please assign 0 (no) whenever GI50 is at or above 40 nM, and 1 (yes) whenever it is below.

Worked examples, 5 molecules total:
Cc1nnc(-c2ccc(Cl)cc2C[C@H]2C(=O)N(C)CCCCC=CC[C@H](N(C)C(=O)[C@@H](NC(=O)[C@@H]3C[C@@H](F)CN3C(=O)C3(C(F)(F)F)CCC3)C3CC3)C(=O)N[C@@H](CC(C)C)C(=O)N2C)o1    0 (no)
[2H]C([2H])([2H])N(C(=O)[C@@H](NC(=O)[C@@H]1C[C@@H](F)CN1C(=O)C1(C(F)(F)F)CC(F)(F)C1)C1CC1)[C@H]1CCCCCCCN(C)C(=O)[C@H](Cc2cc(Cl)ccc2-c2ccc(N3CCN(C)CC3)cc2)N(C)C(=O)[C@H](CC(C)C)NC1=O    1 (yes)
CC(C)C[C@@H]1NC(=O)[C@@H](N(C)C(=O)[C@@H](NC(=O)[C@@H]2C[C@@H](F)CN2C(=O)C2(C(F)(F)F)CC(F)(F)C2)C2CC2)CCCCCCCN(C)C(=O)[C@H](Cc2cc(Cl)ccc2-c2cnn(CCN3CCOCC3)c2)N(C)C1=O [Example 256] ({cBuCO(3,3-F2-1-CF3)}-[Pro(trans-4-F)][Gly(cPr)][NMehhhLys(Me)]L[X55]; lactam 3-C)    1 (yes)
CC(C)C[C@@H]1NC(=O)[C@@H](N(C)C(=O)[C@@H](NC(=O)[C@@H]2C[C@@H](F)CN2C(=O)C2(C(F)(F)F)CC(F)(F)C2)C2CC2)CCCCCCCN(C)C(=O)[C@H](Cc2cc(Cl)ccc2-c2cnc3nn(C)cc3c2)N(C)C1=O [Example 249] ({cBuCO(3,3-F2-1-CF3)}-[Pro(trans-4-F)][Gly(cPr)][NMehhhLys(Me)]L[X209]; lactam 3-C)    1 (yes)
CC(C)C[C@@H]1NC(=O)[C@@H](N(C)C(=O)[C@@H](NC(=O)[C@@H]2C[C@@H](F)CN2C(=O)C2(C(F)(F)F)CC(F)(F)C2)C2CC2)CC=CCCCCNC(=O)[C@H](Cc2cc(F)ccc2-c2cnn(C)c2)N(C)C1=O    1 (yes)

Please examine the following record next.
# input Quick check: GI50 of CC(C)C[C@@H]1NC(=O)[C@@H](N(C)C(=O)[C@@H](NC(=O)[C@@H]2C[C@@H](F)CN2C(=O)C2(C(F)(F)F)CC(F)(F)C2)C2CC2)CCCCCCN(C)C(=O)[C@H](Cc2cc(Cl)ccc2-c2cnn(C3CC3)c2)N(C)C1=O under 40 nM?
# output 0 (no)

###

TARGET DESC: CyclinA2/CDK2 (Homo sapiens, UniProt P20248)
Construct: purchased CRELUX Protein Services
ASSAY EXPLANATION: Fluorescence Polarization (FP) competitive binding assay, Cyclin A2/Cdk2;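 further: plates equilibrated two hours at room temperature before polarization reading, IC50 fitted from eight-concentration compound titration curves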
RUN CONDITIONS: 8 nM Cyclin A2/Cdk2, 2 nM FAM probe; average of 2-3 independent experiments; read-out: Cyclin A FP IC50
*1 amine or outer side, *2 acyl side, *3 side chain or, on linkers, in order; H or OH if unused. Where a SMILES comes first, the peptide text is derived from it. Bridges are numbered along the chain shown (N, C = ends). [ ]: non-standard residue; d: D form. The star is where a group is joined. X32 = CN([C@@H](Cc1cc(Cl)ccc1-c1ccc(N2CCOCC2=O)cc1)C(=O)[*:2])[*:1]; X137 = CN([C@@H](Cc1cc(F)ccc1-c1cnn(S(C)(=O)=O)c1)C(=O)[*:2])[*:1]; X26 = CN([C@@H](Cc1cc(F)ccc1-c1cnn(C2CC2)c1)C(=O)[*:2])[*:1]; NMehhhLys(Me) = CN([C@@H](CCCCCCCN(C)[*:3])C(=O)[*:2])[*:1]; Oxane2carbonyl(2R-CF3) = O=C([C@@]1(C(F)(F)F)CCCCO1)*; cBuCO(3,3-F2-1-CF3) = O=C(C1(C(F)(F)F)CC(F)(F)C1)*; Pro(trans-4-F) = O=C(O)[C@@H]1C[C@@H](F)CN1; Gly(cPr) = N[C@H](C(=O)O)C1CC1
OBSERVABLE: IC50 (µM)
Expressed in µM, but write only the number.

CC(C)C[C@@H]1NC(=O)[C@@H](N(C)C(=O)[C@@H](NC(=O)[C@@H]2C[C@@H](F)CN2C(=O)C2(C(F)(F)F)CC(F)(F)C2)C2CC2)CCCCCCCN(C)C(=O)[C@H](Cc2cc(F)ccc2-c2cnn(C3CC3)c2)N(C)C1=O [Example 68] ({cBuCO(3,3-F2-1-CF3)}-[Pro(trans-4-F)][Gly(cPr)][NMehhhLys(Me)]L[X26]; lactam 3-C)    0.02
CC(C)C[C@@H]1NC(=O)[C@@H](N(C)C(=O)[C@@H](NC(=O)[C@@H]2C[C@@H](F)CN2C(=O)[C@@]2(C(F)(F)F)CCCCO2)C2CC2)CCCCCCCN(C)C(=O)[C@H](Cc2cc(F)ccc2-c2cnn(S(C)(=O)=O)c2)N(C)C1=O [Example 303] ({Oxane2carbonyl(2R-CF3)}-[Pro(trans-4-F)][Gly(cPr)][NMehhhLys(Me)]L[X137]; lactam 3-C)    0.03

Okay, next one:
# input Quote IC50 with test system CyclinA2/CDK2 (Homo sapiens, UniProt P20248) for CC(C)C[C@@H]1NC(=O)[C@@H](N(C)C(=O)[C@@H](NC(=O)[C@@H]2C[C@@H](F)CN2C(=O)C2(C(F)(F)F)CC(F)(F)C2)C2CC2)CCCCCCCN(C)C(=O)[C@H](Cc2cc(Cl)ccc2-c2ccc(N3CCOCC3=O)cc2)N(C)C1=O [Example 408] ({cBuCO(3,3-F2-1-CF3)}-[Pro(trans-4-F)][Gly(cPr)][NMehhhLys(Me)]L[X32]; lactam 3-C)
# output 0.02

###

Test system: OVCAR3 cells
ASSAY EXPLANATION: MTT proliferation assay, OVCAR3;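 further: compound given as an 8- or 10-point series, one day after plating, with exposure covering roughly 3-4 cell doublings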
Format: cell-based
RUN CONDITIONS: 5 days compound exposure, 1:3 serial dilution starting at 10 μM
*1 amine or outer side, *2 acyl side, *3 side chain or, on linkers, in order; H or OH if unused. Where a SMILES comes first, the peptide text is derived from it. Bridges are numbered along the chain shown (N, C = ends). [ ]: non-standard residue; d: D form. The star is where a group is joined. X107 = CN([C@@H](Cc1cc(Cl)ccc1-c1ccc(-c2cnn(C)c2)cc1)C(=O)[*:2])[*:1]; X162 = COc1cncc(-c2ccc(Cl)cc2C[C@@H](C(=O)[*:2])N(C)[*:1])c1; NMehhhLys(Me) = CN([C@@H](CCCCCCCN(C)[*:3])C(=O)[*:2])[*:1]; X174 = CN([C@@H](Cc1cc(Cl)cnc1-c1cnn(C)c1)C(=O)[*:2])[*:1]; cBuCO(3,3-F2-1-CF3) = O=C(C1(C(F)(F)F)CC(F)(F)C1)*; Pro(trans-4-F) = O=C(O)[C@@H]1C[C@@H](F)CN1; Gly(cPr) = N[C@H](C(=O)O)C1CC1
Listing: GI50 of selected compounds
Expressed in nM, but write only the number.

In the examples that follow, each entry is paired with its recorded GI50.
CC(C)C[C@@H]1NC(=O)[C@@H](N(C)C(=O)[C@@H](NC(=O)[C@@H]2C[C@@H](F)CN2C(=O)C2(C(F)(F)F)CC(F)(F)C2)C2CC2)CCCCCCCN(C)C(=O)[C@H](Cc2cc(Cl)ccc2-c2ccc(-c3cnn(C)c3)cc2)N(C)C1=O [Example 338] ({cBuCO(3,3-F2-1-CF3)}-[Pro(trans-4-F)][Gly(cPr)][NMehhhLys(Me)]L[X107]; lactam 3-C)    20
CC(C)C[C@@H]1NC(=O)[C@@H](N(C)C(=O)[C@@H](NC(=O)[C@@H]2C[C@@H](F)CN2C(=O)C2(C(F)(F)F)CC(F)(F)C2)C2CC2)CCCCCCCN(C)C(=O)[C@H](Cc2cc(Cl)cnc2-c2cnn(C)c2)N(C)C1=O [Example 246] ({cBuCO(3,3-F2-1-CF3)}-[Pro(trans-4-F)][Gly(cPr)][NMehhhLys(Me)]L[X174]; lactam 3-C)    10

Okay, next one:
# input Name the recorded GI50 of the compound listed here: COc1cncc(-c2ccc(Cl)cc2C[C@H]2C(=O)N(C)CCCCCCC[C@H](N(C)C(=O)[C@@H](NC(=O)[C@@H]3C[C@@H](F)CN3C(=O)C3(C(F)(F)F)CC(F)(F)C3)C3CC3)C(=O)N[C@@H](CC(C)C)C(=O)N2C)c1 [Example 199] ({cBuCO(3,3-F2-1-CF3)}-[Pro(trans-4-F)][Gly(cPr)][NMehhhLys(Me)]L[X162]; lactam 3-C)
# output 50
